Values were extracted from patent US4997757A.

experiment: survival of yeast exposed to agent; assay type: cell-based, Saccharomyces cerevisiae; conditions: yeast strain rs112, 0.015 mg/ml

>  <MOLECULAR_STRING>
C=O

>  <OUTPUT_UNIT>
%

>  <viability at 17 h>
97

$$$$

* * *

experiment: survival of yeast exposed to agent; type: cell-based, Saccharomyces cerevisiae; conditions: yeast strain rs112, 20 mg/ml

>  <MOLECULAR_STRING>
CCOC(N)=O

>  <viability at 17 h / %>
51

$$$$
>  <MOLECULAR_STRING>
CCSCC[C@H](N)C(=O)O

>  <viability at 17 h / %>
67

$$$$

* * *

Assay: survival of yeast exposed to agent
Assay type: cell-based, Saccharomyces cerevisiae
Conditions: yeast strain rs112, 0.02 %
From the text: It is preferred to conduct a preliminary experiment to determine those concentrations of the agent to be tested which should be evaluated in the main experiment. Yeast cells are exposed to a wide range of concentrations of the agent to be tested to determine its cytotoxicity. […] The strain used in this example was RS112 which was obtained by crossing strain RSY6 with strain 428. […] Strains containing the his3Δ-200 mutation are readily available to those skilled in the art.
# viability at 17 h values compiled below
MEASUREMENT_NAME: viability at 17 h (%)

>  <MOLECULE>
CCOS(C)(=O)=O [EMS, ethyl methanesulphonate]

>  <MEASUREMENT_NAME>
viability at 17 h

>  <MEASURED_RESULT>
98

$$$$
>  <MOLECULE>
COS(C)(=O)=O [MMS, methyl methane sulphonate]

>  <MEASUREMENT_NAME>
viability at 17 h

>  <MEASURED_RESULT>
35

$$$$

* * *

assay: survival of yeast exposed to agent; type: cell-based, Saccharomyces cerevisiae; details: yeast strain rs112, 0.05 %

>  <MOLECULAR_STRING>
C=CCc1ccc2c(c1)OCO2

>  <viability at 17 h (%)>
112

$$$$

* * *

experiment: survival of yeast exposed to agent; format: cell-based, Saccharomyces cerevisiae; settings: yeast strain rs112, 0.4 %

>  <COMPOUND>
C=CCc1ccc2c(c1)OCO2 [Safrole]

>  <viability at 17 h, %>
4.6

$$$$

* * *

# viability at 17 h values compiled below
Assay: survival of yeast exposed to agent
Assay type: cell-based, Saccharomyces cerevisiae
Details: yeast strain rs112, 0.1 %
From the text: It is preferred to conduct a preliminary experiment to determine those concentrations of the agent to be tested which should be evaluated in the main experiment. Yeast cells are exposed to a wide range of concentrations of the agent to be tested to determine its cytotoxicity. […] The strain used in this example was RS112 which was obtained by crossing strain RSY6 with strain 428. […] Strains containing the his3Δ-200 mutation are readily available to those skilled in the art.
MEASUREMENT_NAME: viability at 17 h

>  <MOLECULE>
CCOS(C)(=O)=O [EMS, ethyl methanesulphonate]

>  <MEASURED_RESULT>
91%

$$$$
>  <MOLECULE>
C=CCc1ccc2c(c1)OCO2 [Safrole]

>  <MEASURED_RESULT>
95%

$$$$

* * *

assay: survival of yeast exposed to agent; format: cell-based, Saccharomyces cerevisiae; conditions: yeast strain rs112, 0.001 %

>  <MOLECULE>
COS(C)(=O)=O [MMS, methyl methane sulphonate]

>  <viability at 17 h (%)>
100

$$$$
